Target: CRBN/DDB1 (Homo sapiens (Human), UniProt Q96SW2)
Sequence (Q96SW2 whole entry): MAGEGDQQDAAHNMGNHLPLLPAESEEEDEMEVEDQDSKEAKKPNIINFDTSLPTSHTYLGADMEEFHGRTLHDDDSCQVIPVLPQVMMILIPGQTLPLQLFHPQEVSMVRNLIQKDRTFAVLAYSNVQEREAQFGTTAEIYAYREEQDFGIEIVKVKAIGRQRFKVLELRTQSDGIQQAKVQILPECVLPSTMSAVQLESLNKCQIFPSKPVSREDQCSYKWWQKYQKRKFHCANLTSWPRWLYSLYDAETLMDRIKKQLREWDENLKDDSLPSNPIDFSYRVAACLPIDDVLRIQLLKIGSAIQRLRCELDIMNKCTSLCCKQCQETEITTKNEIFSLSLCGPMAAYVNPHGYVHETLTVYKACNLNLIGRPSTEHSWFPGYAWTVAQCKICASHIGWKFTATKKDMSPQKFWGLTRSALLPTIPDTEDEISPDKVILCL
Sequence (Q16531 whole entry partner): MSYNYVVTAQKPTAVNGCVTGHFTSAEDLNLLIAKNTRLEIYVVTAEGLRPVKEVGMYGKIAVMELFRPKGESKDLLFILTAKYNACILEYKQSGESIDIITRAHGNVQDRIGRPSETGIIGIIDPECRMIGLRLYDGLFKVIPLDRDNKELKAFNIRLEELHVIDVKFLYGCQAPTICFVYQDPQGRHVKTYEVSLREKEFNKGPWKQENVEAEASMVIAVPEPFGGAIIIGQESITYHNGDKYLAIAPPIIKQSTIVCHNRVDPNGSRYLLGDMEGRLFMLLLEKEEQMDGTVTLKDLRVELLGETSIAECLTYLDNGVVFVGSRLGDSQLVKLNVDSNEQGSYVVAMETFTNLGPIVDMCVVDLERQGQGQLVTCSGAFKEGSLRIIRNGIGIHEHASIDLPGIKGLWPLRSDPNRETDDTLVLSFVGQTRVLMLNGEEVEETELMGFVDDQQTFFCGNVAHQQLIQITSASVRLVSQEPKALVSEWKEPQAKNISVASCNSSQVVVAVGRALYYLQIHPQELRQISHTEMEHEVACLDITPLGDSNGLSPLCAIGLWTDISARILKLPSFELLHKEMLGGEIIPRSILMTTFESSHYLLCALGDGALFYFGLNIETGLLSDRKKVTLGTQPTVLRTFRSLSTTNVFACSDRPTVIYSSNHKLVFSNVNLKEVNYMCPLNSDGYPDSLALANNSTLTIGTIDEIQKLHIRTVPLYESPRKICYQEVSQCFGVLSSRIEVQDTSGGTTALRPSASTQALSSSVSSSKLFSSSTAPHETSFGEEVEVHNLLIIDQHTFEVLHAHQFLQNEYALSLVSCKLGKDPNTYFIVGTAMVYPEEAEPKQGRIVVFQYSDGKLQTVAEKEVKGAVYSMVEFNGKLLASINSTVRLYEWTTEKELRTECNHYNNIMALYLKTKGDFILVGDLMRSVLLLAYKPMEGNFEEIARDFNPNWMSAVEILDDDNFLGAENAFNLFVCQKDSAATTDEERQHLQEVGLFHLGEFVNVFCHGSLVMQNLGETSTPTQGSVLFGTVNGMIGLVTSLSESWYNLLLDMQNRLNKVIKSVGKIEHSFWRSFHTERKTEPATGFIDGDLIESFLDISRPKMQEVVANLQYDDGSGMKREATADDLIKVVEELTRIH
Conditions: HTRF, His tagged CRBN+DDB-DLS7+CXU4, Cy5-labeled Thalidomide probe; read-out: CRBN Binding IC50
Counter-ions that a name gives are not always drawn.
Readings of pIC50 for the listed compounds
Scale explanation: pIC50 corresponds to minus log10 of a concentration expressed in moles per litre.

Check out these entries, answers already filled in.
- COMPOUND: "O=C1CCC(N2Cc3c(ccc4c3OC3(CCNCC3)CC4)C2=O)C(=O)N1 (stereo not shown)"
  NUMBER: 6.21
- COMPOUND: "O=C1CCC(N2Cc3c(ccc4c3OC3(C=C4)CCNCC3)C2=O)C(=O)N1 (stereo not shown)"
  NUMBER: 5.96
- COMPOUND: "O=C1CCC(N2Cc3c(ccc4c3OC3(C=C4)CNC3)C2=O)C(=O)N1 (stereo not shown) [Compound A3, hydrochloride]"
  NUMBER: 5.89

Short answer for O=C1CCC(N2Cc3c(ccc4c3OC3(CC4)CNC3)C2=O)C(=O)N1 (stereo not shown) [Compound A4, hydrochloride] : pIC50 was 5.28
